B1: r4_43_TrROS_Hall (parent)
chain: DLVTIKVPLENLEEIKKAAEKAGFKIVSISYDKENKEVTIVIEKKK

- Variants of: B1
- testName: folding stability dG (cDNA display proteolysis); higher = more stable
- conditionInfo: PBS, room temperature
parameterMeasured: folding stability dG (kcal/mol)

* DLVTIKVPLENLEEIKKAAEKAGFKIVSISYDKEDKEVTIVIEKKK | 3.73
* DLVTIKVPLENLEEIKDAAEKAGFKIVSISYDKENKEVTIVIEKKK | 3.44
* DLVTIKVPLENLEEIKKAAEKAGFKIVWISYDKENKEVTIVIEKKK | 3.88
* DLVTIKVPLENLEEIKKAAEKAGFKIVIISYDKENKEVTIVIEKKK | 3.39
* DLVTIKVPLGNLEEIKKAAEKAGFKIVSISYDKENKEVTIVIEKKK | 3.58
* DLVTIKVPLENLEEIHKAAEKAGFKIVSISYDKENKEVTIVIEKKK | 3.29
* DLVTIKVPLENLEEIMKAAEKAGFKIVSISYDKENKEVTIVIEKKK | 3.58
* DLVHIKVPLENLEEIKKAAEKAGFKIVSISYDKENKEVTIVIEKKK | 3.64
* DLVTIKVPLENLEEIKKAAEKAGFKIVSISYDKEKKEVTIVIEKKK | 3.17
* DLVTIKVPLENLEEIKKAAEKAGFKIVSISYDKENKEVTIVIEWKK | 4.25
* DLVTIKVPLENLEEIKNAAEKAGFKIVSISYDKENKEVTIVIEKKK | 3.17
* DLVTIKVPLENLEEIKKAAEKAGFSIVSISYDKENKEVTIVIEKKK | 3.58
* DLVQIKVPLENLEEIKKAAEKAGFKIVSISYDKENKEVTIVIEKKK | 3.38
* DLVTIKVPLENLEEIKKAVEKAGFKIVSISYDKENKEVTIVIEKKK | 3.97
* DLVTIKVPLENLEEIKKAAEAAGFKIVSISYDKENKEVTIVIEKKK | 3.79
* DLVTFKVPLENLEEIKKAAEKAGFKIVSISYDKENKEVTIVIEKKK | 4.32
* DLVTIKVPLENLEEIKKAAEKAGFKIVSISYDKENKEVTIVGEKKK | 2.97
* DLVTIKVPLENLEEIKKAAEKAGFKIVSINYDKENKEVTIVIEKKK | 3.79
* DLVTIKVPLENLEEIKKAAEKAGFKIVSISYDKENKEVTIVIQKKK | 3.64
* DLVTIKVPLENLEEIKKAAEKAGFKIVSISSDKENKEVTIVIEKKK | 2.83
* DLVTIKVPLENYEEIKKAAEKAGFKIVSISYDKENKEVTIVIEKKK | 3.64
* DLVTIKVPLENLEEIKKAAEKAGFKIVSISWDKENKEVTIVIEKKK | 3.55
* DLVTIKVPLENLEEIKKAAEKAGFKIVSISYDKENKEVRIVIEKKK | 3.57
* DQVTIKVPLENLEEIKKAAEKAGFKIVSISYDKENKEVTIVIEKKK | 3.85
* DLVTIKVPLENLEGIKKAAEKAGFKIVSISYDKENKEVTIVIEKKK | 3.86
* DLVTIKVPLENLEEIKKAAERAGFKIVSISYDKENKEVTIVIEKKK | 4.07
* DLVTIKVPLENLEEIKKAAEKAGFKIVSISYDQENKEVTIVIEKKK | 3.83
* DLVTIKVPLENLEEIKKAAEKAGFKIVSISYDKENKEVTIVIEKMK | 3.93
* DLVTIKVPLENLEEIKKAAEKLGFKIVSISYDKENKEVTIVIEKKK | 3.66
* DLVTIKVPLPNLEEIKKAAEKAGFKIVSISYDKENKEVTIVIEKKK | 3.48
* DLVTIKVPLENLEEIKKAAEKAGFKIASISYDKENKEVTIVIEKKK | 3.48
* DLVTIKVPLENLEEIKKAAEKAGFKIVSISYDKQNKEVTIVIEKKK | 3.89
* DLVTIKVPLENLEEIKKAAEKAGFKIVSISYDKENKEVTIVIEFKK | 4.48
* DLVTIKVPLENLEEIKKAAEKAGFKIVSISYDKENYEVTIVIEKKK | 3.61
* DLVTIKVPLENLEEIKKAAEKAGFKIVSISYDKERKEVTIVIEKKK | 3.98
* DLVTIKVPLENLEEIKKRAEKAGFKIVSISYDKENKEVTIVIEKKK | 3.72
* DLVTIKVPLENLEEQKKAAEKAGFKIVSISYDKENKEVTIVIEKKK | 3.58
* DLVTIKVPLENLEEIKKAAEKAGFKIVSISDDKENKEVTIVIEKKK | 2.58
* DLVTIKVPLENLEEIKKAAEKAGFKIVSISYDKENKNVTIVIEKKK | 3.62

Source: the MegaScale stability set (Tsuboyama et al. 2023)
